Collected Plant response rating, Ragweed values appear next to each entry.
# System: ragweed
# experimental details: Test C preemergence
# Type: in vivo, Ambrosia artemisiifolia
# run parameters: Preemergence, 500 g ai/ha; visual rating after 10 days, 0 to 100 scale (0 no effect, 100 complete control)
Lab note: record just the number, no unit beside it.

Examples from the recorded data:
| input smiles | tested system | Plant response rating, Ragweed |
| --- | --- | --- |
| Cc1cc(-n2cnc(C(C)C)n2)cc(C(=O)N2C[C@H](C)Oc3c(Cl)cccc32)c1F | ragweed | 40 |
| C[C@H]1CN(C(=O)c2cc(-n3cncn3)cc3c2OCCO3)c2cccc(Cl)c2O1 | ragweed | 100 |
| CCc1ncn(-c2ccc(C)c(C(=O)N3C[C@H](COC)Oc4c(Cl)cccc43)c2)n1 | ragweed | 70 |
| CCc1ccc(-n2cnc(C(C)C)n2)cc1C(=O)N1C[C@H](C)Oc2c(C)cccc21 | ragweed | 20 |
| CSCc1ncn(-c2ccc(C)c(C(=O)N3C[C@H](C)Oc4c(Cl)cccc43)c2)n1 | ragweed | 50 |

Identify Plant response rating, Ragweed associated with the molecule "CC(C)c1ncn(-c2cc3c(c(C(=O)N4C[C@H](C)Oc5c(Cl)cccc54)c2)OCCO3)n1"
100

###

# System: soybean
# experimental details: Test A preemergence
# Type: in vivo, Glycine max
# run parameters: 500 g ai/ha, 0 to 100 scale (0 no effect, 100 complete control), 10 days
# Source text: […]
assay readout: Plant response rating, Soybean

Examples from the recorded data:
| compound | Plant response rating, Soybean |
| --- | --- |
| Cc1ccc(-n2cnc(C(C)(C)C)n2)cc1C(=O)N1C[C@H](C)Oc2c(C)cccc21 [Compound 100] | 100 |
| Cc1cccc2c1O[C@@H](C)CN2C(=O)c1cccc(-n2cnc(C3CCCCC3)n2)c1 [Compound 82] | 0 |
| COc1ccc(-n2cnc(C)n2)cc1C(=O)N1C[C@H](C)Oc2c(Cl)cccc21 [Compound 89] | 100 |
| CC1CN(C(=O)c2cccc(-n3cncn3)c2)c2c(F)cccc2O1 (centres unmarked) [Compound 28] | 0 |
| Cc1cccc2c1O[C@@H](C)CN2C(=O)c1cccc(-n2cncn2)c1F [Compound 53] | 0 |

Identify measured Plant response rating, Soybean obtained with soybean for C[C@H]1CN(C(=O)c2cccc(-n3cnc(C(C)(C)C)n3)c2)c2cccc(Cl)c2O1 [Compound 92] .
90

Identify measured Plant response rating, Soybean obtained with soybean for C[C@H]1CN(C(=O)c2cc(-n3cncn3)ccc2C(F)(F)F)c2cccc(Cl)c2O1 [Compound 70] .
0

Identify measured Plant response rating, Soybean obtained with soybean for Cc1ncn(-c2cccc(C(=O)N3C[C@H](C)Oc4c(C)cccc43)c2)n1 [Compound 51] .
100

###

# Test system: soybean
# experimental details: Test C preemergence
# Type: in vivo, Glycine max
# run parameters: 500 g ai/ha, preemergence; 0 to 100 scale (0 no effect, 100 complete control)
# From the text: […]
assay readout: Soybean plant response rating
Lab note: record just the number, no unit beside it.

Examples from the recorded data:
| compound | tested system | Soybean plant response rating |
| --- | --- | --- |
| Cc1ccc(-n2cnc(CC#N)n2)cc1C(=O)N1C[C@H](C)Oc2c(Cl)cccc21 | soybean | 100 |
| CC(C)c1ncn(-c2cc(C(=O)N3CC(C(F)(F)F)Oc4c(Cl)cccc43)ccn2)n1 (racemic) | soybean | 80 |
| CC(=O)c1ncn(-c2ccc(C)c(C(=O)N3C[C@H](C)Oc4c(Cl)cccc43)c2)n1 | soybean | 100 |

Identify measured Soybean plant response rating obtained with soybean for Cc1cccc2c1OC(C(F)(F)F)CN2C(=O)c1cccc(-n2cnc(C(C)C)n2)c1 (racemic) .
100

This collection of values is drawn from patent US20260262643A1.
